The following molecules are shown together with reported melting point values.

Solved cases below.
| Molecule | melting point |
| --- | --- |
| C=CC[C@H](C(N)=O)[C@@H](CC(C)C)C(=O)NC1N=C(N(C)C)c2ccccc2N(C)C1=O (stereo partly drawn) [Example 20] | 230 to 232 °C |
| C=CC[C@H](C(N)=O)[C@@H](CC(C)C)C(=O)NC1N=C(c2cccc(OC)c2)c2ccccc2N(C)C1=O (stereo partly drawn) | 225 to 230 °C |
| C=CC[C@H](C(N)=O)[C@@H](CC(C)C)C(=O)NC1N=C(N2CCOCC2)c2ccccc2N(C)C1=O (stereo partly drawn) [Example 19] | 145 to 151 °C |
| C=CC[C@H](C(N)=O)[C@@H](CC(C)C)C(=O)NC1N=C(c2cccnc2)c2ccccc2N(C)C1=O (stereo partly drawn) | 251 to 253 °C |
| C=CC[C@H](C(N)=O)[C@@H](CC(C)C)C(=O)NC1N=C(N2CCCCC2)c2ccccc2N(C)C1=O (stereo partly drawn) [Example 22] | 231 to 238 °C |

We next turn to a different molecule, shown below.
Q: State the recorded melting point for this entry: C=CC[C@H](C(N)=O)[C@@H](CC(C)C)C(=O)NC1N=C(N2CCCCCC2)c2ccccc2N(C)C1=O (stereo partly drawn) [Example 23]
Result: 232 to 237 °C

---

Where a name gives a salt, the structure may show the parent alone.
Recorded Endpoint: melting point

Solved cases below.
| Compound | melting point |
| --- | --- |
| C=CC[C@H](C(N)=O)[C@@H](CC(C)C)C(=O)NC1N=C(c2ccccc2)c2cc(OC)ccc2N(C)C1=O (stereo partly shown) | 244 to 255 °C |
| C=CC[C@H](C(N)=O)[C@@H](CC(C)C)C(=O)NC1N=C(N(C)c2ccccc2)c2ccccc2N(C)C1=O (stereo partly shown) | 266.6 to 267.8 °C |
| C=CC[C@H](C(N)=O)[C@@H](CC(C)C)C(=O)NC1C(=O)N(C)c2ccccc2-c2ccccc21 (stereo partly shown) | 137 to 145 °C |

Q: State the recorded melting point for this entry: CC(C)C[C@@H](C(=O)N[C@H]1N=C(c2ccccc2)c2ccccc2N(C)C1=O)[C@@H](CC1CC1)C(N)=O (as salt: succinate)
Result: 146 to 148 °C

The measurements presented in this section are drawn from patent US7456172B2.
